# Test system: human lung adenocarcinoma epithelial cell line A549
# Method: MTT assay, inhibition of tumor cell growth (A549)
# Format: cell-based
# Settings: 72 hours incubation, read-out: IC50 on the tumor cells A549
pIC50: −log10 of the molar value.
Cut-off 5 on pIC50, inclusive. At or above means condition met; below means condition not met.

Compound	Assigned Label
CCN1C(=O)C(=C2Oc3ccccc3C2=NO)c2ccc(Cl)cc21	condition met
CC(C)N1C(=O)C(=C2C(=O)Oc3ccccc32)c2cnc(F)cc21	condition not met
CC(C)N1C(=O)C(=C2Oc3ccccc3C2=O)c2cc(Cl)cnc21	condition not met
CON=C1C(=C2C(=O)N(Cc3ccccc3)c3ccc(F)cc32)Oc2ccccc21	condition met
CCN1C(=O)C(=C2Oc3c(Cl)cccc3C2=O)c2cccnc21 [Compound 79]	condition not met

Task: Please indicate if the recorded pIC50 for CCN1C(=O)C(=C2Oc3ccccc3C2=NOC)c2cc(F)ccc21 meets or exceeds 5.
Output: condition met
